SYSTEM_UNDER_TEST: T1, hIL-3 receptor (human, UniProt P26951)
T1 sequence: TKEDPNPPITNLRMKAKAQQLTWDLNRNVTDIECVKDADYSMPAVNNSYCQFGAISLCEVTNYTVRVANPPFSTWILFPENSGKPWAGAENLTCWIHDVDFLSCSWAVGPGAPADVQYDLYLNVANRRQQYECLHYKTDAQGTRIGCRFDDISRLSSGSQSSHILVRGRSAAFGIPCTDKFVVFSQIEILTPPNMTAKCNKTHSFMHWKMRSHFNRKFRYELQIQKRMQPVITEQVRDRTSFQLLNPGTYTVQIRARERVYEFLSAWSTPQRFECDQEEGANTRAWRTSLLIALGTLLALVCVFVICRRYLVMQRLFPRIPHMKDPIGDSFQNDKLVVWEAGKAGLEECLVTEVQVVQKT
PROCEDURE_TEXT: cell-based or functional assay
READOUT_LABEL: Relative Biological Activity (AML 193 proliferation)

1. pMON13326 polypeptide (ligand) MANCSNMIDEIITHLKQPPLPLLDFNNLNDEDMSILMDNNLRRPNLEAFNRAVKSLQNASAIESILKNLLPCLPLATAAPTRHPIHIKDGDWNEFRRKLTFYLWTLENAQAQQ; 25 EC50 (1-133)hIL-3 / EC50 mutant
2. pMON13391 polypeptide (ligand) MANCSIMIDEIIHHLKRPPAPSLDPNNLNAEDVDILMERNLRLPNLESFVRAVKNLENASGIEAILRNLQPCLPSATAAPSRHPIIIKAGDWQEFREKLTFYLVTLEQAQEQQ; 30 EC50 (1-133)hIL-3 / EC50 mutant
3. pMON13298 polypeptide (ligand) MANCSNMIDEIITHLKQPPLPLLDFNNLNGEDQDILMENNLRRPNLEAFNRAVKSLQNASGIEAILRNLQPCLPSATAAPSRHPIIIKAGDWQEFREKLTFYLVTLEQAQEQQ; 3 EC50 (1-133)hIL-3 / EC50 mutant
4. pMON13301 polypeptide (ligand) MANCSIMIDEIIHHLKRPPAPLLDPNNLNAEDVDILMERNLRLPNLESFVRAVKNLENASAIESILKNLLPCLPLATAAPTRHPIHIKDGDWNEFRRKLTFYLKTLENAQAQQ; 2 EC50 (1-133)hIL-3 / EC50 mutant

Numbers sourced from patent US6051217.
